Parameter IC50: see the listing below.
target_of_assay: Recombinant human HSD17B13 enzyme (Homo sapiens, UniProt Q7Z5P4)
method_summary: HSD17b13 NAD(P)H-Glo biochemical assay
condition_summary: 50 uM estradiol, 1 mM NAD+, NAD(P)H-Glo luminescence; read-out: HSD17β13 IC50

Task item: Look up IC50: Cn1nc(-c2cc(C(F)(F)F)c(F)c(O)c2F)c2cnc(N3CCOCC3C3CCOCC3)nc21 (centres unmarked) [Compound 18.42]
Reply: < 100 nM

----------
target_of_assay: Recombinant human HSD17B13 enzyme (Homo sapiens)
Sequence (Q7Z5P4 20-300): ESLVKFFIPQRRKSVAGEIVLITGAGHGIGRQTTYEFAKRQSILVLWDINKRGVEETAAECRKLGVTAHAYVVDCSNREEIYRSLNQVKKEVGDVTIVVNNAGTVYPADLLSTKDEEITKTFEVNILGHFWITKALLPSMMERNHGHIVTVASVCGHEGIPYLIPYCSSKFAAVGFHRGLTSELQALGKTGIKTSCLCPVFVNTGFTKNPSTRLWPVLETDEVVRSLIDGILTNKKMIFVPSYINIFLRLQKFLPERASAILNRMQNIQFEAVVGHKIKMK
method_summary: HSD17b13 NAD(P)H-Glo biochemical assay
condition_summary: 50 uM estradiol, 1 mM NAD+, NAD(P)H-Glo luminescence; read-out: HSD17β13 IC50
pIC50: −log10 of the molar value.
Parameter pIC50: see the listing below.

Record excerpt, results attached:
Cn1nc(-c2cc(C(F)(F)F)c(F)c(O)c2F)c2cnc(N3CCCCC3)nc21 [Compound 18.35] : > 7.00
Cn1nc(-c2cc(C(F)(F)F)c(F)c(O)c2F)c2cnc(N3CC4(CCOCC4)C3)nc21 [Compound 9.04] : > 7.00
COC1CCN(c2cc3c(cn2)c(-c2cc(C(F)(F)F)c(F)c(O)c2F)nn3C)C2(CCC2)C1 (stereo not drawn) [Compound 9.75] : > 7.00
O=C(NC1COC1)c1ccc2oc(-c3cc(C(F)(F)F)c(F)c(O)c3F)nc2c1 [Compound 1.19] : 6.00 to 7.00
CC(=O)N1CCN(c2cc3c(cn2)c(-c2cc(C(F)(F)F)c(F)c(O)c2F)nn3C)CC1 [Compound 9.62] : 6.00 to 7.00
COC1(C)CN(c2ncc3c(-c4cc(C(F)(F)F)c(F)c(O)c4F)nn(C)c3n2)C1 [Compound 9.13] : > 7.00

Task item: Return pIC50 measured with Recombinant human HSD17B13 enzyme (Homo sapiens) given this molecule: Cn1nc(-c2cc(C(F)(F)F)c(F)c(O)c2F)c2cc(F)c(N3CCOCC34CCC4)nc21 [Compound 9.107]
Reply: > 7.00

Task item: Repeat with Cn1nc(-c2cc(C(F)(F)F)c(F)c(O)c2F)c2cnc(N(Cc3ccccc3)C3CCOCC3)cc21 [Compound 9.123]
Reply: > 7.00

Task item: Repeat with CN1CC(NC(=O)c2ccc3oc(-c4cc(C(F)(F)F)c(F)c(O)c4F)nc3c2)C1 [Compound 1.18]
Reply: 4.52 to 6.00

Task item: Repeat with CN1CCN(c2ncc3c(-c4cc(C(F)(F)F)c(F)c(O)c4F)nn(C)c3n2)C(c2ccccc2)C1 (stereo not drawn) [Compound 18.53]
Reply: > 7.00

Task item: Repeat with Cn1nc(-c2cc(C(F)(F)F)c(F)c(O)c2F)c2cnc(N(C3CCOCC3)C3CC3)cc21 [Compound 9.129]
Reply: > 7.00
